Test system: MILI (PIWIL2) piRISC loaded with L1MC piRNA (26 nt);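 also: 1 nM active piRISC with 0.1 nM target library at 33 °C single turnover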
Assay: pre-steady-state target cleavage rate (min^-1); guide: L1MC piRNA 5'p-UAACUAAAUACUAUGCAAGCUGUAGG; MIWI and MILI are mouse PIWI proteins and EfPiwi is from a freshwater sponge; tags in brackets are library labels; higher = faster piRNA-guided slicing of the target
Settings: auxiliary factor: 500 nM mouse GTSF1
endpoint: pre-steady-state target cleavage rate

Tell me pre-steady-state target cleavage rate reported for "UCCUCCAACAGCUUGGAUAGUAUUUAGUUA"
0.269

Tell me pre-steady-state target cleavage rate reported for "UCCUGCUACAGCUUGCAAAGUAUUUACUUA"
0.0653

Tell me pre-steady-state target cleavage rate reported for "UCCUGGAUGUGGUUGCAUAGUAUUUAGAUA"
0.0485

Tell me pre-steady-state target cleavage rate reported for "UCCUGGAUGUCCUUGGCAUAGUAUUUAGUUA"
0.566

Tell me pre-steady-state target cleavage rate reported for "UCCUCGAUCAGCUUGCAUAGUAUUUAGUAA"
0.269

Tell me pre-steady-state target cleavage rate reported for "UCCUGGAUCACCUUGCAUACUAUUUAGUUA"
0.0453

Tell me pre-steady-state target cleavage rate reported for "UCCUGGAUGUCCUUGCAAAGUAUUUACUUA"
0.0234

Tell me pre-steady-state target cleavage rate reported for "UCCUGGAUGUCGUUGCAUAGUAUAAUGUUA"
0.0201

Tell me pre-steady-state target cleavage rate reported for "UCCUGGAUGUGCUUGCAUAGUAUAUAGUUA"
0.083
